Below: a set of entries, each annotated with reported melting point.

{"columns": ["molecule", "melting point"],
 "data": [
  ["CCCCC/C(=C\\c1ccccc1)CNc1cccc(-c2ccnc3c(C(=O)c4cccs4)cnn23)c1", "110 to 112 °C"],
  ["Cc1c(C)c(N2CCN(c3nc(-c4ccccc4)ns3)CC2)c(C)c2c1OC(C)(C)C2", "204 to 205 °C"],
  ["C#CCN1N=C(c2ccc(Cl)cc2)CN(C)C1=O", "159 to 160 °C"],
  ["CCOC(=O)C1Cc2c([nH]c3ccccc23)CN1 (stereo not given)", "126 to 128 °C"],
  ["CCOC(=O)N(O)C(C)c1cc(C(C)(C)C)c(O)c(C(C)(C)C)c1 (stereo not given)", "130 to 132 °C"]
]}

----------
measurementKind: melting point

{"columns": ["inputSmiles", "result"],
 "data": [
  ["Cc1cc(S(=O)(=O)O)c(NC(=O)Nc2cccc(Br)c2)cc1Cl", "275 °C"],
  ["O=C(c1ccc(-c2ccn(C(=O)c3ccc(Cl)cc3Cl)n2)cc1)N1Cc2cccn2Cc2ccccc21", "180 to 182 °C"],
  ["NCc1ccc2c(c1)c(C1CCN(CCN3CCNC3=O)CC1)cn2-c1ccc(F)cc1", "171 to 175 °C"],
  ["CCCCc1ncc(Sc2ccccc2C(=O)O)n1Cc1ccc(C(=O)O)cc1", "260 to 262 °C"]
]}

----------
Below: a set of entries, each annotated with reported melting point.

{"columns": ["compound", "melting point"],
 "data": [
  ["Nc1c(-c2ccc(-c3ccc(F)cc3)cc2)nc2ccc(F)cc2c1C(=O)O", "241 to 243 °C"],
  ["Cn1nc2c(-c3ccc(Cl)cc3Cl)cccc2c1CCC#N", "192 to 193 °C"],
  ["CC(=O)OCC1CCn2c(c(C3=C(c4coc5ccccc45)C(=O)NC3=O)c3ccccc32)C1 (stereo not given)", "234 to 237 °C"],
  ["CC(C)(O)C#Cc1ncn2c1[C@@H]1CCCN1C(=O)c1c(Cl)cccc1-2", "234 to 235 °C"],
  ["CC(C)Oc1cc(COc2ccc(C(F)(F)F)cc2)cc(COc2cc(CCC(=O)O)n(-c3ccccc3)n2)c1", "55 to 58 °C"],
  ["O=c1ccn(C2CC(O)C(CNC(c3ccccc3)(c3ccccc3)c3ccccc3)O2)c(=O)[nH]1 (stereo not given)", "132 to 134 °C"],
  ["COc1cc(C(=O)CCC(=O)c2cc(OCc3ccccc3)c(O)c(S(=O)(=O)CCO)c2)cc(OC)c1OC", "129 to 130 °C"],
  ["CON(Cc1ccc(Cl)c(Cl)c1)C(=O)C1=C(O)C(=O)N(C)C1", "149 °C"],
  ["O=C(NCc1ccc(Cl)cc1)c1cnc2c(F)cc(-c3cccs3)cc2c1O", "298 to 301 °C"],
  ["CC(C)(C)NS(=O)(=O)c1cccc(-c2ccc3cnc(Nc4ccc(=O)[nH]c4)nn23)c1", "270 to 271 °C"],
  ["CC(=O)OCC(=O)N(c1c(C)ccc2ccccc12)C1CCOC1=O (stereo not given)", "50 to 70 °C"],
  ["O=C(CCC(=O)N1CCCCC1)c1ccccc1", "52 to 54 °C"],
  ["O=C(O)CC1(c2ccc(Cl)cc2Cl)CNC(=O)C1 (stereo not given)", "188 to 192 °C"],
  ["Cc1[nH]nc(CN2CCN(Cc3c[nH]c4ncccc34)CC2)c1-c1ccccc1", "154 to 156 °C"],
  ["NC(=O)c1csc(-c2cccc(N)c2)n1", "173 to 174 °C"],
  ["N#Cc1ccc2ccc(=O)oc2c1", "217 to 225 °C"],
  ["Cc1noc(NS(=O)(=O)c2ccsc2NC(=O)Nc2sccc2S(=O)(=O)Nc2onc(C)c2C)c1C", "112 to 114 °C"],
  ["O=C(O)c1cn(C2CC2)c2c(F)c(N3CCCC(n4cncn4)C3)c(F)cc2c1=O (stereo not given)", "217 °C"],
  ["COc1ccc(SCc2ccc(F)cc2F)c(Cl)c1Cl", "86 to 88 °C"],
  ["O=C1CCN=C(c2ccccc2Cl)c2ccccc21", "135 to 137 °C"]
]}

----------
{"columns": ["compound", "melting point"],
 "data": [
  ["O=C(Nc1cccc(-c2c(-c3ccccc3)cnc3c(C(F)(F)F)cccc23)c1)Nc1ccccc1Cl", "192 to 195 °C"],
  ["CC(C)(O)Cn1c(CO)nc2c(N)nc3cc(OCc4ccccc4)ccc3c21", "284 to 286 °C"],
  ["CCCCn1c(CO)nc2c(N)nc3ccccc3c21", "223 to 225 °C"],
  ["CC1OC(n2cnc3c(N)nc(N)nc32)C(O)C1O (stereo not given)", "135 to 138 °C"],
  ["NC(=O)/C=C1\\CCc2c(Cl)cc(F)cc21", "182 to 184 °C"],
  ["CCCOc1ccc(S(=O)(=O)N2CC[C@@H](N(C)C)C2)cc1-c1nc2cc3ncn(Cc4ccccc4)c3cc2c(=O)[nH]1", "190 °C"],
  ["N#Cc1cc(C(=O)O)cnc1Br", "170 to 172 °C"],
  ["CN(CCN(C)C1=C(O)C(=O)c2ccccc2C1=O)Cc1ccccc1", "121 to 123 °C"],
  ["O=C(C1CC1)N1CC[C@@H](Oc2ccc(F)cc2)[C@H](c2ccccc2)C1 (relative stereo)", "113 to 115 °C"],
  ["Cc1ccc2c(c1)c(N1CCN(C(=O)c3cccs3)CC1)c(C#N)c(=O)n2Cc1ccccc1", "183 °C"]
]}

----------
Below: a set of entries, each annotated with reported melting point.

{"columns": ["molecule", "melting point"],
 "data": [
  ["CCCCCCCCCCCCCCc1c[nH]c(C(=O)OC)c1", "80 to 82 °C"],
  ["COC(=O)C(CCSC)N(C(=O)OC(C)(C)C)C(=O)c1ccc(N)c(C)c1 (stereo unspecified)", "163 to 165 °C"],
  ["COC(=O)/C(N)=C/C(=O)/C=C/c1ccc(Cl)cc1", "112 to 113 °C"],
  ["COCCCc1nc(C(F)F)ccc1C(=O)C1C(=O)C2CCC(C2)C1=O (stereo unspecified)", "45 to 46 °C"],
  ["COc1ccnc(OC)c1CON=C(C)c1cc(C)cc(C)n1", "114 to 116 °C"],
  ["CCOC(=O)c1csc(-c2cccnc2)n1", "73 to 75 °C"],
  ["CC(C)c1ccc(-c2ccnc(-c3cccc(C(=O)O)c3)c2)cc1", "233 to 234 °C"],
  ["N#Cc1c(-c2ccc(Cl)cc2)[nH]c(SC(F)(F)F)c1Br", "241 to 243 °C"],
  ["CN(Cc1ccc(Cl)cc1)C(=O)CC12CC3CC(CC(C3)C1)C2", "75 to 76 °C"],
  ["COc1cc(Nc2ncc3c(n2)C(C)(c2ccccc2)CCC3)ccc1-n1cnc(C)c1 (stereo unspecified)", "207 to 209 °C"],
  ["CN1CCN(c2nc3ccc(Br)c4c3n2CCC4)CC1", "132 to 133 °C"]
]}

----------
Below: a set of entries, each annotated with reported melting point.

{"columns": ["compound", "melting point"],
 "data": [
  ["COC(=O)C(C)Oc1ccc(Oc2ccc(C(F)(F)F)cc2)cc1 (stereo unspecified)", "142 °C"],
  ["O=C(C(=O)c1ccc(Oc2cccc(Br)c2)cc1)c1ccccc1", "75 to 76 °C"],
  ["COc1ccc(CNc2nnc(Cl)c3ccc(C#N)cc23)cc1Cl", "213 to 214 °C"],
  ["N#CC(C(=O)Nc1cccc(Br)c1)C(=O)c1nn(-c2ccccc2)c2c1Cc1ccccc1-2 (stereo unspecified)", "289 to 290 °C"],
  ["O=C(Nc1cccc(C(F)(F)F)c1)C(=O)N1CCC(Cc2ccccc2)CC1", "87 to 89 °C"],
  ["CCOC(=O)C=Cc1ccc(Oc2nsnc(Cl)c2=O)cc1", "126 to 128 °C"],
  ["CN(CCO)C(=O)c1c(-c2ccc(C(C)(C)C)cc2)n(C)n(-c2ccc(C#N)cc2)c1=O", "210 to 213 °C"],
  ["CN(C)S(=O)(=O)C(Br)(Br)Sc1ccccc1", "128 to 129 °C"],
  ["COC1C(=O)NC=C1Cl (stereo unspecified)", "96 to 98 °C"],
  ["CCCNC(=O)C(O)C1(O)CCC2C3CCC4=CC(=O)C=CC4(C)C3C(O)CC21C (stereo unspecified)", "251 to 253 °C"],
  ["CCOC(=O)C(=O)Nc1cc(C#N)cc([N+](=O)[O-])c1", "114 to 116 °C"],
  ["c1ccc(-c2cn[nH]c2)nc1", "136 °C"],
  ["CCOC(=O)CCN(C1(C(=O)O)CCCC1)S(=O)(=O)c1ccc(Oc2ccc(F)cc2)cc1", "164 to 166 °C"],
  ["COc1cc(Nc2c(C#N)cnc3cc(-c4ccsc4CN4CCOCC4)ccc23)c(Cl)cc1Cl", "98 to 100 °C"],
  ["CCOC(=O)c1cn(-c2ccc(OC)cc2)cn1", "93 to 94 °C"],
  ["O=C(NCCn1cncn1)c1ccc(Cl)nc1", "186 to 188 °C"],
  ["COc1cccc2c1nc(C(F)F)n2-c1nc(N2CCOCC2)c2cnn(C3CCN(S(=O)(=O)CCl)CC3)c2n1", "250 to 253 °C"],
  ["Nc1ncccc1OCc1c(F)cc(F)cc1F", "122 to 124 °C"],
  ["Cc1cc(-c2ccc(S(C)(=O)=O)cc2)n(-c2ccc(C)c(C)c2)c1", "126 to 128 °C"],
  ["NC(=O)Oc1ccccc1-c1nc2ccc(OCc3c(F)cccc3F)cc2s1", "216 °C"],
  ["C=CCc1c(OC(C)=O)ccc2c(C)cc(=O)oc12", "98.8 to 99.8 °C"],
  ["CC1CCc2ccc(CC(=O)O)cc2C(=O)C1 (stereo unspecified)", "105 to 107 °C"],
  ["CCOC(=O)COCCCC(=CC(N)C(=O)O)CP(=O)(O)O (stereo unspecified)", "215 to 218 °C"],
  ["COC(=O)COc1ccc2cc(-c3cnc(Cc4ccccc4)o3)ccc2c1", "236 to 238 °C"],
  ["CCCCCCCCCCCCNC(=O)c1cc(-c2cccc(C(F)(F)F)c2)c(OCCO)c(-c2cccc(C(F)(F)F)c2)c1", "154 to 158 °C"],
  ["CN(C)c1cc2nc(C(C)(C)C)sc2cc1[N+](=O)[O-]", "65 to 68 °C"],
  ["CC(=O)OCC(C(=O)OC(C)(C)C)C(=O)c1ccccc1 (stereo unspecified)", "72 to 74 °C"],
  ["COc1ccc(C(=CC(=O)N2CCOCC2)c2ccc(Cl)nc2)cc1OC", "154 to 160 °C"],
  ["O=C1c2ccccc2C(=O)c2sc(-c3cc(Br)c(Br)o3)nc21", "> 260 °C"],
  ["CC1CCCN1C1CCN(c2ccc(CC(=O)NC3CCOCC3)cc2)C1 (stereo unspecified)", "155 to 157 °C"],
  ["Oc1ccc(-c2nnc(Cc3ccc(Oc4ccccc4)cc3)o2)cc1", "202 to 203 °C"],
  ["O=C(O)c1csc(Oc2cccc(Cl)c2)n1", "135 to 137 °C"],
  ["CCCCCCCC(=O)OCCCCCCOc1ccc(Nc2ccccc2)cc1", "42 to 43 °C"],
  ["CC(C)(C)OC(=O)N1CCc2ccc(NS(C)(=O)=O)cc2CC1", "153 to 154 °C"],
  ["CCCCCCCCCCCCCC(=O)O[C@H](CCCCCCCCCCC)CC(=O)N[C@@H](CO)C(=O)OCc1ccccc1", "56 to 61 °C"],
  ["N#Cc1ccc(NCc2cc3c(cc2O)CCO3)s1", "158 to 160 °C"],
  ["CCCc1nc2c(N)nc3cc(OCCCNS(C)(=O)=O)ccc3c2n1CC(C)C", "166 to 168 °C"],
  ["CCCCCCCCc1ccc(CCC(C)(CCOC(C)=O)NC(C)=O)cc1 (stereo unspecified)", "137 to 141 °C"],
  ["N#Cc1c(SSc2cn(-c3c(Cl)cc(C(F)(F)F)cc3Cl)c(Cl)c2C#N)cn(-c2c(Cl)cc(C(F)(F)F)cc2Cl)c1Cl", "220 °C"],
  ["O=C1OCC(c2ccc(Cl)cc2)C1CSCc1ccccc1 (stereo unspecified)", "66 to 69 °C"],
  ["CCCCSc1nc(N)c(C#N)s1", "115 to 117 °C"]
]}
